Some binders, each annotated with its measured pIC50.
- tgt: T1, human CTLA4 (Y201 mutated to valine) on stably transfected CHO-K1 cells (human, UniProt P16410 36-223)
- T1 construct: whole, on cells; the mutation of the intracellular position Y201 keeps the protein on the membrane; also called human CTLA4 overexpressing CHO cells; human CTLA4 transfectant
- assaySummary: FACS, direct binding titration on human CTLA4 CHO cells (head prints IC50)
- Experimental: Binding of putative CTLA4 reactive Nanobodies clones was detected using unlabeled anti-c-myc tag mouse monoclonal antibody 9E10, followed by a phycoerythrin conjugated F(ab′)2 derived from goat-anti-mouse IgG (human and bovine crossabsorbed), and read on a BD FACSarray instrument. Dead cells were excluded from the analysis by gating out TOPRO3 vital dye positive scoring cells. Binding of the Nanobodies to cells was evaluated in BD FACSarray control software as PE channel histograms.
Reminder that pIC50 is minus the log10 of a molar concentration.

INSERT INTO measurements (binder, measuredmetric, assayvalue) VALUES
  ('4CTLAPMP06C10 (VHH, short label tied to the entry by the clone code only; not shown: C-terminal c-myc tag and His6 tag) VHH: EVQLVESGGGLVQAGGSLRLSCAASGRTFSNYTIAYFRQAPGREREFAAAISPHGTLRSFADSVKDRFTISRDNAKNTVWLQMNSLKLEDTAVYYCAADPSGWGLRQHSENEYPYWGLGTQVTVSS', 'pIC50', 8.24),
  ('4CTLAPMP03C4 (VHH, short label tied to the entry by the clone code only; not shown: C-terminal c-myc tag and His6 tag) VHH: EVQLVESGGGLVQAGGSLRLSCAASGGTFSFYGMGWFRQAPGKEREFVADIRTSAGRTYYADSVKGRFTISRDNAKNTVYLQMNSLKPEDTAVYYCAAEMSGISGWDYWGQGTQVTVSS', 'pIC50', 8.09),
  ('4CTLAPMP11F1 (VHH, short label tied to the entry by the clone code only; also called 11F1 WT; not shown: C-terminal c-myc tag and His6 tag) VHH: EVQLVESGGGLVQAGGSLRLSCAASGGTFSFYGMGWFRQAPGKEQEFVADIRTSAGRTYYADSVKGRFTISRDNAKNTVYLQMNSLKPEDTAVYYCAAEMSGISGWDYWGQGTQVTVSS', 'pIC50', 8.34),
  ('4CTLAPMP02G2 (VHH, short label tied to the entry by the clone code only; not shown: C-terminal c-myc tag and His6 tag) VHH: EVQLVESRGGLVQTGGSLRLSCAASGRTFSNYTMGWFRQAPGKDREFVAAISRSGSLKSYADSVKGRFTISRDNAKKMAYLQMNSLKPEDTAVYYCAAAPVPWGTRPSFFTYDSWGQGTQVTVSS', 'pIC50', 8.64);

Need pIC50, item 4CTLAPMP17E3 (VHH, short label tied to the entry by the clone code only; not shown: C-terminal c-myc tag and His6 tag) VHH: EVQLMESGGGLVTAGGSLRLSCAASGGTFGHYAMAWFRRPPGNEREFVAGIGWTYTTFYADSVKGRFAISRDNAENTVYLQMNNLKPDDTAVYYCAAAELKGRNLRVPDYEHWGQGTQVTVSS 7.95

Need pIC50, item 4CTLAPMP2G9 (VHH, short label tied to the entry by the clone code only; not shown: C-terminal c-myc tag and His6 tag) VHH: EVQLVKSGGQLVQAGGSLRLSCAATGRTYNSYPLGWFRQAPGKEREFVAAISASGTLRAYADSVKGRFTISRDSAKNTVYLQMNNLKPEDTAVYYCARARSVGWRASHHLSDYDNWGQGTQVTVSS 8.61

Need pIC50, item 4CTLAPMP02F4 (VHH, short label tied to the entry by the clone code only; not shown: C-terminal c-myc tag and His6 tag) VHH: EVQLVESGGGLVQTGGSLRLSCAASGRTFSNYTMGWFRQAPGKDREFVAAISRSGALKAYADSVKGRFTPSRDNAKKMAYLQMNSLKPEDTAVYYCAAAPVPWGTRPSFFPYDSWGQGTQVTVSS 8.62

Need pIC50, item 4CTLAPMP02F2 (VHH, short label tied to the entry by the clone code only; not shown: C-terminal c-myc tag and His6 tag) VHH: EVQLMESGGGLVQTGGSLRLSCAASGRTFSNYTMGWFRQAPGKDREFVAAISRSGSLKAYADSVKGRFTPSRDNAKKMAYLQMNSLKPEDTAVYYCAAAPVPWGTRPSLFPYDSWGQGTQVTVSS 8.59
